Origin of the recorded values: patent US9423396B2

Assay: Spectroscopic measurements (absorption, emission, quantum yield, extinction coefficient)
Format: physicochemical
Details: BDNCA library
Listing: Qunt. Yield of selected compounds
Number, no unit, nothing else.

Problem: // query Qunt. Yield value for entry CC1=CC(/C=C/c2cc(Cl)ccc2O)=[N+]2C1=C(c1ccc(NC(=O)CCl)cc1)c1cccn1[B-]2(F)F
Result: 0.06

Problem: // query Qunt. Yield value for entry Cc1cc(/C=C/c2ccc(OCc3ccc(Br)cc3)cc2)n2c1C(c1ccc(NC(=O)CCl)cc1)=C1C=CC=[N+]1[B-]2(F)F
Result: 0.05

Problem: // query Qunt. Yield value for entry CC1=CC(/C=C/c2cc(Cl)cc(Cl)c2O)=[N+]2C1=C(c1ccc(NC(=O)CCl)cc1)c1cccn1[B-]2(F)F
Result: 0.02

New cases:
Problem: // query Qunt. Yield value for entry COc1cccc(Oc2ccccc2/C=C/C2=[N+]3C(=C(c4ccc(NC(=O)CCl)cc4)c4cccn4[B-]3(F)F)C(C)=C2)c1
Result: 0.14
